Readings of ED50 for the listed compounds
Test system: Clinical isolates that have been adapted to cause infection in mice
Assay: In vivo antibacterial protection, 7 day survival of infected mice
Design: species or system mice strain CD-1
Conditions: Mus musculus, 168 h, Ratio of Piperacillin vs. Inhibitor 4:1, read-out: ED50
Could you give me the number in mg/kg? Just the number is fine.

Solved entries:
{"columns": ["compound", "reported_endpoint", "recorded_number"],
 "data": [
  ["CN1CCc2sc(C=C3C(=O)N4C(C(=O)O)=CSC34)cc2C1 (stereo not shown)", "ED50", 37.9],
  ["O=C([O-])C1=CS[C@@H]2/C(=C\\c3cc4n(n3)CCCC4)C(=O)N12.[Na+]", "ED50", 31.3]
]}

# input for lookup
Memo: O=C([O-])C1=CS[C@@H]2/C(=C\c3cc4n(n3)CSC4)C(=O)N12.[Na+] , reported ED50: 20

====

Target: class B enzyme CcrA (Bacteroides fragilis)
Sequence (P25910 19-249): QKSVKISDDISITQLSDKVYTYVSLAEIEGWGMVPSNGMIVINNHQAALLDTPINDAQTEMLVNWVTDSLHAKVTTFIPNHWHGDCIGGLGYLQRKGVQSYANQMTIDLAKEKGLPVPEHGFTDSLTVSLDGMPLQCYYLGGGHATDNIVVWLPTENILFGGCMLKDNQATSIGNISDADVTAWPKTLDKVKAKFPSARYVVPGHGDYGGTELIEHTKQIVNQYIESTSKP
Assay: IC50 determination, β-lactamase inhibition (nitrocefin, spectrophotometric)
Type: biochemical
Settings: enzyme 1.2 nM; 10 minutes preincubation at 25° C.; nitrocefin 50 μg/ml; pH 7.0; read-out: IC50 (nM) Class B Ccr
Procedure: IC50 Determination for the Penem Inhibitor β-Lactamase inhibitory activity of the penem inhibitors was determined spectrophotometrically as described by Bush et al., [Bush, K., Macalintal, C., Rasmussen, B. A., Lee, V. and Yang, Y. Antimicrobial Agents and Chemotherapy 1993, 37, 851]. […] Initial rates of hydrolysis were monitored for 5 minutes at 495 nm using a Molecular Devices Spectra Max 250 with kinetic protocol of SoftMax Program. […]
Structures can show the parent of a compound that is named as a salt.
Friendly reminder: IC50 below 100 nM is label 1, at or above is label 0.

Solved entries (count: 4):
{"columns": ["molecule", "label_value"],
 "data": [
  ["CN1Cc2nc(/C=C3/C(=O)N4C(C(=O)O)=CS[C@H]34)cn2CC1=O [Example 10, sodium salt]", "label 0"],
  ["O=C(O)C1=CS[C@@H]2/C(=C\\c3cn4c(n3)CN(Cc3ccccc3)CC4)C(=O)N12 [Example 20, sodium salt]", "label 1"],
  ["CN1CCc2sc(C=C3C(=O)N4C(C(=O)O)=CSC34)cc2C1 (centres unmarked) [Example 17]", "label 1"],
  ["O=C([O-])C1=CS[C@@H]2/C(=C\\c3cn4c(n3)CSC4)C(=O)N12.[Na+] [Example 13, sodium salt]", "label 0"]
]}

--- query ---
[ask] Does CC1(C)Cc2cc(/C=C3/C(=O)N4C(C(=O)[O-])=CS[C@H]34)nn2C1.[Na+] [Example 26, sodium salt] have IC50 strictly under 100 nM?
[reply] label 1
